SYSTEM NAME: c-kit autophosphorylation (Phospho c-Kit Tyr721) in HMC 1.1 (exon 11/13) cells, V654A (Homo sapiens, UniProt P10721, V560G/V654A)
Construct: endogenous in cells
Sequence (P10721 26-976 V560G/V654A): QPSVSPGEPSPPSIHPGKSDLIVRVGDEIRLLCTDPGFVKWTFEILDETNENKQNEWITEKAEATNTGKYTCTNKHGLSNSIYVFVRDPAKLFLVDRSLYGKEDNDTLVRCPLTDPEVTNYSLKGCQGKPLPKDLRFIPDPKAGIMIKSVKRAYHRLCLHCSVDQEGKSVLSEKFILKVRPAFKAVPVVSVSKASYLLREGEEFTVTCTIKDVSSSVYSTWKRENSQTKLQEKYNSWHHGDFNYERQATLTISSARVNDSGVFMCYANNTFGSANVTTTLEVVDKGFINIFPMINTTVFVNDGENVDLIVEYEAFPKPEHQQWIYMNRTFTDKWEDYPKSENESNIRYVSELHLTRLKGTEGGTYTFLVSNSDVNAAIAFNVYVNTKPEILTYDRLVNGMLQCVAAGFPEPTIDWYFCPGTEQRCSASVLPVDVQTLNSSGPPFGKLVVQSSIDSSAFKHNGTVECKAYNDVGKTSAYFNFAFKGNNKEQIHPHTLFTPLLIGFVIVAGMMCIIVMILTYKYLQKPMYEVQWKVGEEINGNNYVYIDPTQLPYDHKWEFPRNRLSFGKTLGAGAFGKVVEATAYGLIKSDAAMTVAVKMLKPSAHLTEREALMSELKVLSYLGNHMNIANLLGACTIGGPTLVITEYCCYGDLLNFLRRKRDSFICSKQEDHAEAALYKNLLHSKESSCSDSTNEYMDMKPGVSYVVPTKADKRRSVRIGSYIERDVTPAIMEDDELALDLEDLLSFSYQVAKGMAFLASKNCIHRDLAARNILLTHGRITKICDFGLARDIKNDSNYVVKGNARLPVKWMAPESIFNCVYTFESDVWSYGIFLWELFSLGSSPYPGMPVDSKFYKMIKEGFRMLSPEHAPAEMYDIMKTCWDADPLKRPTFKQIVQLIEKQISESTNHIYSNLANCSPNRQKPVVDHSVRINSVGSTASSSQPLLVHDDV
EXPERIMENT: pKIT Meso Scale Discovery (MSD) assay, inhibition of autophosphorylation of KIT, HMC1.1_V654A
PARTICULARS: Table 1, cell line not named for Table 1, b1056 names pKIT HMC1.1_V654A, read-out: Code (IC50 for inhibition of autophosphorylation of KIT, pKIT MSD assay)
Here the recorded IC50 is given for each entry.

Query: For the compound "[2H]C([2H])([2H])NC(=O)c1cnc(Nc2cc(N)nc(C(F)F)n2)cc1NC1CC1" , what IC50 is on record?
Reply: < 0.01 µM

Source: patent US20250270190A1
